# ASSAY TARGET: HIR +11 (human insulin receptor, B isoform) (Homo sapiens, UniProt P06213)
# TEST: Binding of IM peptides to IR isoform HIR +11
# CONDITIONS: +11 (B) isoform
Listed here: items and their measured relative affinity HIR +11.
Number, no unit, nothing else.

Known results for sequences:
# BIOSEQUENCE, VALUE MEASURED
measured = [
    ("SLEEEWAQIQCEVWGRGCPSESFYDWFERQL [compound 636]", 117),
    ("SLEEEWAQIQCEVWGRGCPSESFYGWFERQL [compound 667]", 127),
    ("SLEEEWAQIQCEVWGRGCPSESFYGWFERQLG [compound 733]", 290),
]

# relative affinity HIR +11 of SLEEEWAQIECEVWGRGCPSEGFYNAIELLS [compound 726] = 121

Memo: SLEEEWAQIECEVYGRGCPSVRGFQGGTVWPGYEWLRNAAKK [compound 626] , reported relative affinity HIR +11: 78

Item: SLEEEWAQVECEVYERGCPSESFYDWFERQL [compound 696] | relative affinity HIR +11: 3.1

# relative affinity HIR +11 (sequence: SLEEEWAQIQEEVWGRGEPSESFYDWFERQL [compound 700] ) is 53

relative affinity HIR +11 for SLEEEWAQIEAEVWGRGAPSESFYDWFERQLG [S574] is 8.2
